Tested on: A498 cells
Test: MTT cytotoxicity, kidney cancer cells A498
Assay type: cell-based, human
Conditions: MTT, *: effective 72 hours after incubation
Description: The cytotoxicity, general tyrosine kinase inhibitory effects and cell death (apoptosis/necrosis) assays of 1-benzyl-3-(1H-indol-3-ylmethylidene)-1,3-dihydro-2H-indol-2-one derivatives (Formula 5) of the present invention are studied by the following methods. […] MTT (3-(4,5-dimethylthiazol-2-yl)-2,5-diphenyl-2H-tetrazolium bromide) colorimetric assay provides quantitation of viable cells with ongoing mitochondrial activity in culture medium. […]
reported-metric: pIC50
FYI, pIC50 means -log10 of a concentration in mol per litre.

Previously resolved entries follow.
compound: Cc1ccc2c(c1)/C(=C/c1c[nH]c3ccccc13)C(=O)N2Cc1ccc(Cl)cc1 [47C]
result: 6.05
//
compound: O=C1/C(=C\c2c[nH]c3ccccc23)c2cc(Cl)cc(Cl)c2N1Cc1ccccc1 [36C]
result: 5.84
//
compound: Cc1ccc2c(c1)/C(=C/c1c[nH]c3ccccc13)C(=O)N2Cc1ccc(F)cc1 [45C]
result: 6.11

**Query** Please look up its pIC50: Cc1cccc(CN2C(=O)/C(=C\c3c[nH]c4ccccc34)c3cc(C)ccc32)c1 [48C]
**Result** 6.14

**Query** Look up pIC50 for this compound: Cc1cccc(CN2C(=O)/C(=C\c3c[nH]c4ccccc34)c3cc(Cl)ccc32)c1 [20C]
**Result** 6.01
